Where a name gives a salt, the structure may show the parent alone.
Reported pIC50, DDR1 protein (Homo sapiens).
For clarity, pIC50 is expressed as the negative log10 of concentration in mol/L.

Observe how each entry below is paired with its result.
compound=Nc1ncc(/C(F)=C/c2cc(C(=O)N[C@H]3CC(F)(F)CC[C@@H]3O)ccc2OC(F)F)cn1 reported_result=7.82
compound=NC(=O)c1ncc2cc(-c3cc(C(=O)N[C@H]4CC(F)(F)CC[C@@H]4O)ccc3C(F)(F)F)ccn12 reported_result=8.40

Q: Suppose we examine the compound COc1nc(N)ncc1C#Cc1cc(C(=O)N[C@H]2CC3(CC3)C[C@@H]2O)ccc1OC(F)F ; what pIC50 value has been reported?
A: 9.60

Q: Using the record for CCc1ccc(C(=O)N[C@H](CO)CCOC(F)(F)F)cc1NC(=O)c1cnc(NCC2CC2)s1 , report its pIC50.
A: 8.03

Q: Please give the measured pIC50 for this compound: COc1nc(N)ncc1C#Cc1cc(C(=O)N[C@H]2C[C@H](OC(F)(F)F)C[C@@H]2O)ccc1OC(F)F
A: 9.60

Q: Item Nc1ncc(C#Cc2cc(C(=O)N[C@H](CO)c3ccccc3)ccc2OC(F)F)cn1 [Example 36, hydrochloride] has what recorded pIC50?
A: 8.07

Q: Could you share which pIC50 value was measured for Nc1ncc(C#Cc2cc(C(=O)N[C@H]3CC(F)(F)CC[C@@H]3O)ccc2OC(F)F)cn1 [Example 20, p-toluenesulfonate] ?
A: 8.51

Q: # lookup: pIC50 of Nc1ncc(C#Cc2cc(C(=O)N[C@H](CO)Cc3ccc(Cl)cc3)ccc2OC(F)F)cn1 [Example 35, hydrochloride]
A: 8.48

Source: patent US20260242343A1
